meta.source: the supplement of paper PMC11208160

test: recombinant UMI read abundance after kanamycin selection (control-corrected) (log10(CPM+1)); higher = more efficient recombination; extreme values may be limits of the assay; sequences stand for … in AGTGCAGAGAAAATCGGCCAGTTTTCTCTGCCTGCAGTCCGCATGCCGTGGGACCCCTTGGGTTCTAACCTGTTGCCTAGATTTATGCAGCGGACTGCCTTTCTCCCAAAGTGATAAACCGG…AGGTTGGTTTCACT; site = the 11-nt donor;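 also: IS621 bridge recombinase in Escherichia coli cells against a fixed T5 target plasmid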
Please provide measured recombinant UMI read abundance (log10) for the entries that follow.

Looking for the measured recombinant UMI read abundance (log10) of GTGGCTCCATGGACCGGTTTTCCCGGTAATCCGTATTTGTT (site GTGGCTCCTAA) , can you help?
0.00981

Another: CGCTAGGCATGGACCGGTTTTCCCGGTAATCCGTATTTGGT (site CGCTAGGCTAC)
0.0166

Another: GGGGATTCATGGACCGGTTTTCCCGGTAATCCGTATTTGAT (site GGGGATTCTAT)
1.72

Another: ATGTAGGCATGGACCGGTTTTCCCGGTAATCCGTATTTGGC (site ATATAGGCTGC)
2.8

Another: TGATAGCCATGGACCGGTTTTCCCGGTAATCCGTATTTGGA (site TGATAGCCTTC)
0.0136

Another: AGCCCAGCATGGACCGGTTTTCCCGGTAATCCGTATTTGGG (site AGCACAGCTCC)
0.0163

Another: GAATGGTCATGGACCGGTTTTCCCGGTAATCCGTATTTGCA (site GAATGGACTTG)
0.0076

Another: CCGTTCGCATGGACCGGTTTTCCCGGTAATCCGTATTTGTG (site CCGTTAGCTCA)
0.00765

Another: TAGAAATCATGGACCGGTTTTCCCGGTAATCCGTATTTGCG (site TAGTAATCTCG)
2.33
